Form: system (HCT-15), quantity (GI50), values below.
Endpoint Label: GI50

O=C1CCSc2nc(-c3ccc4c(c3)OCO4)nn21 :: > 10 µM
O=c1oc2ccccc2n1CCCn1c(=O)oc2ccccc21 :: > 100 µM
COc1ccccc1C(=O)NO :: > 100 µM

====

System: U-251
Assay: NCI tumour cell line growth inhibition, 48 h
Calls of active or inactive are those of the source. Rule as the data show it: active = GI50 up to about 1.1 µM and inactive = higher.
Classes used: YES for active, NO for inactive

CCOC(=O)/C(C#N)=C/c1coc2cc(C)cc(C)c2c1=O :: NO
C=CCCC1(CC(Sc2ccccc2)P(=O)(c2ccccc2)c2ccccc2)OCCO1 (stereo unspecified) :: NO
Cc1ccc2c(c1)C(=O)N1CCC[C@H]1C=N2 :: NO
C/C=C(/C)C(=O)O[C@H]1[C@H](O)CC(c2ccc3c(c2O)C(=O)C2=C(O)C4(OC)C(=O)C(C(N)=O)=C(O)[C@H](CC(=O)c5ccccc5O)C4CC2[C@@]3(C)OC)O[C@@H]1C (stereo partly specified) :: YES
CC(C)(N)CO[C@H]1C[C@H]2CC[C@@]1(C)C2(C)C :: NO
CCOC(=O)c1c(C)cc(=O)n2c1[nH]c1ccccc12 :: NO
C=CC1CN(C(=O)OCC)N(C(=O)OCC)C1CCc1ccccc1 (stereo unspecified) :: NO
O=C1Cc2c(-c3ccccc3)cc(-c3ccc4ccccc4c3)nc2-c2ccccc2N1 :: NO
COc1cc2c3cc1Oc1c(OC)c(OC)cc4c1C(Cc1ccc(O)c(c1)-c1cc(ccc1OC)CC3N(C)CC2)N(C)CC4 (stereo unspecified) :: NO
O=C(O)c1c(-c2ccccc2)c(=O)[nH]c2ccccc12 :: NO
Cc1cc(NCCCCCCNc2cc(C)nc3cc(N(C)C)ccc23)c2ccc(N(C)C)cc2n1 :: NO
O=C(O)Cc1c(O)ccc2ccccc12 :: NO
COc1ccc2c(c1)[nH]c1c3ccc(OC)cc3oc(=O)c21 :: NO
CC/N=C(/C#N)NCC :: NO
CC#COP(=O)(OCC)OCC :: NO
Cn1c(C2CCCc3c2c2ccccc2n3C)cc2ccccc21 (stereo unspecified) :: NO
C[C@@]12[Se]c3ccccc3[C@]1(C)[Se]c1ccccc12 :: NO
O=C(NCCC1CNc2ccccc21)OCc1ccccc1 (stereo unspecified) :: NO
COC(=O)c1cc2ccccc2c2nc3ccccc3c(Cl)c12 :: NO
CNC(=O)OCc1c(COC(=O)NC)c(C)n(-c2ccc(Br)cc2)c1C :: NO
CC(C)(C)[Si](C)(C)OCCC1CC2(S(=O)(=O)C3=CC=C=C=C3)ON1CC2S(=O)(=O)c1ccccc1 (stereo unspecified) :: NO
O=C1Nc2ccccc2/C1=N\c1cccc2ncccc12 :: NO
COc1cccc(Cc2cc(=O)c3ccc(C)nc3[nH]2)c1 :: NO
CC1CCC2(NC1)OC1CC3C4CC=C5CC(OC6OC(CO)C(OC7OC(C)C(O)C(O)C7O)C(O)C6OC6OC(C)C(O)C(O)C6O)CCC5(C)C4CCC3(C)C1C2C (stereo unspecified) :: NO
O=C(O)/C=C/c1ccc2c(c1)CC1(Cc3ccccc3C1)C2 :: NO
CC(C)NC(C)C(C)c1ccccc1 (stereo unspecified) :: NO
O=C1CCC2=C(CCC2)N1CCc1ccc2c(c1)OCO2 :: NO
COc1ccc(SC(C)(SC)c2ccccn2)c(OC)n1 (stereo unspecified) :: NO
O=C(O)/C=C/c1c2ccc(=O)c(O)c-2oc2c(O)c(O)ccc12 :: NO
COC(=O)c1c(O)ccc2c1c1c(n2Cc2ccc(OC)cc2)C(=O)c2ccccc2C1=O :: NO
COCOc1cc(OC)c(Br)cc1C/C(=N/O)C(=O)OC :: NO
COC(=O)C1=C(OC)C(=P2(c3ccccc3)CC(c3ccccc3)=C2c2ccccc2)C(C(=O)OC)=C1C(=O)OC (stereo unspecified) :: NO
CCOC(=O)C(NC(=O)c1ccccc1)(Nc1ccc(S(=O)(=O)Nc2nc(C)cc(C)n2)cc1)C(F)(F)F (stereo unspecified) :: NO
Cc1cc(C)c2c(=O)n(CC(O)CN3CCN(CCOCCO)CC3)sc2n1 (stereo unspecified) :: NO
O=C1C=CC(=O)C(CNc2ccc(C(=O)OC34CC5CC(CC(C5)C3)C4)cc2)=C1Br :: NO
CO[C@H]1O[C@@H]2CO[C@@H](c3ccccc3)O[C@H]2[C@@H]2CC=CCC[C@]12O :: NO
